Source: paper PMC3613087

# tested target: rat lens aldose reductase (RLAR) (Rattus norvegicus)
# Construct: from tissue; host or cells: rat lens (Sprague-Dawley) homogenate, partially purified
# test method notes: Rat lens aldose reductase (RLAR) inhibitory assay, DL-glyceraldehyde as substrate
# Assay type: biochemical
# settings: concentration 5 μg/mL; mean of triplicate
Is inhibition at 5 µg/mL at least 50%? Then 1. If not, 0.

Recorded results for 5 molecules are shown here.
>  <molecule>
O=C(O)c1c(O)cc(O)cc1O [2,4,6-trihydroxybenzoic acid (3), 2,4,6-trihydroxybenzoic acid]

>  <qualitative label>
0

$$$$
>  <molecule>
O=C(O)C=Cc1ccc(O)cc1 [p-hydroxycinnamic acid (4), p-hydroxycinnamic acid]

>  <qualitative label>
0

$$$$
>  <molecule>
O=C(O)CC(=O)OC[C@H]1O[C@@H](Oc2cc3c(O)cc(O)cc3[o+]c2-c2ccc(O)c(O)c2)[C@H](O)[C@@H](O)[C@@H]1O [Cyanidin-3-(6′′-malonylglucoside) (11), cyanidin 3-(6′′-malonylglucoside)]

>  <qualitative label>
0

$$$$
>  <molecule>
O=c1c(O)c(-c2ccc(O)c(O)c2)oc2cc(O)cc(O)c12 [Quercetin, quercetin, reference compound]

>  <qualitative label>
1

$$$$
>  <molecule>
O=c1c(O[C@@H]2O[C@H](CO)[C@@H](O)[C@H](O)[C@H]2O)c(-c2ccc(O)c(O)c2)oc2cc(O)cc(O)c12

>  <qualitative label>
1

$$$$

With those in mind, consider the next molecule.
# input Is inhibition at 5 µg/mL at least 50%? Consider COc1cc(-c2oc3cc(O)cc(O)c3c(=O)c2O[C@@H]2O[C@H](CO)[C@@H](O)[C@H](O)[C@H]2O)ccc1O
# output 1

###

# tested target: rat lens aldose reductase (RLAR) (Rattus norvegicus, UniProt P07943)
# Construct: from tissue; host or cells: rat lens (Sprague-Dawley) homogenate, partially purified
# test method notes: Rat lens aldose reductase (RLAR) inhibitory assay, DL-glyceraldehyde as substrate
# Assay type: biochemical
# settings: concentration 10 μg/mL; mean of triplicate; read-out: Inhibition (%) of RLAR
readout type: inhibition at 10 µg/mL (%)
I only need the number, in %, no unit after it.

>  <molecule>
O=C(O)CC(=O)OC[C@H]1O[C@@H](Oc2cc3c(O)cc(O)cc3[o+]c2-c2ccc(O)c(O)c2)[C@H](O)[C@@H](O)[C@@H]1O [Cyanidin-3-(6′′-malonylglucoside) (11), cyanidin 3-(6′′-malonylglucoside)]

>  <inhibition at 10 µg/mL (%)>
68

$$$$
>  <molecule>
O=C(O)C=Cc1ccc(O)cc1 [p-hydroxycinnamic acid (4), p-hydroxycinnamic acid]

>  <inhibition at 10 µg/mL (%)>
77.8

$$$$

Read the next record carefully.
# input Entry under review: O=C(O)c1c(O)cc(O)cc1O [2,4,6-trihydroxybenzoic acid (3), 2,4,6-trihydroxybenzoic acid] . Reported inhibition at 10 µg/mL?
# output 73.7

###

# tested target: rat lens aldose reductase (RLAR) (Rattus norvegicus, UniProt P07943)
# Construct: from tissue; host or cells: rat lens (Sprague-Dawley) homogenate, partially purified
# test method notes: Rat lens aldose reductase (RLAR) inhibitory assay, DL-glyceraldehyde as substrate
# Type: biochemical
# settings: least-squares regression of log concentration vs inhibitory activity; read-out: IC50 (μM) RLAR
# Procedure: RLAR activity was assayed according to the methods described by Dufrane et al.. […] The rat lens homogenate was prepared according to the method of Hayman and Kinoshita with some modifications. […] The partially purified material was separated into 1.0 mL aliquots and stored at −40°C. […] Each 1.0 mL cuvette contained equal units of enzyme, 0.05 M sodium phosphate buffer (pH 6.2), and 0.3 mM NADPH with or without 10 mM substrate and inhibitor. […]
Some molecules, each annotated with its measured IC50.
Give the quantity in µM, number only.

Illustrative cases are given below, each with its answer.
>  <molecule>
O=c1c(O[C@@H]2O[C@H](CO)[C@@H](O)[C@H](O)[C@H]2O)c(-c2ccc(O)c(O)c2)oc2cc(O)cc(O)c12 [Hirsutrin (6), hirsutrin]

>  <numeric result>
4.78

$$$$
>  <molecule>
O=C(O)CC(=O)OC[C@H]1O[C@@H](Oc2cc3c(O)cc(O)cc3[o+]c2-c2ccc(O)c(O)c2)[C@H](O)[C@@H](O)[C@@H]1O [Cyanidin-3-(6′′-malonylglucoside) (11), cyanidin 3-(6′′-malonylglucoside)]

>  <numeric result>
11.7

$$$$
>  <molecule>
O=C(O)C=Cc1ccc(O)cc1 [p-hydroxycinnamic acid (4), p-hydroxycinnamic acid]

>  <numeric result>
36.7

$$$$
>  <molecule>
COc1cc(-c2oc3cc(O)cc(O)c3c(=O)c2O[C@@H]2O[C@H](CO)[C@@H](O)[C@H](O)[C@H]2O)ccc1O [3′-methoxyhirsutrin (7), 3′-methoxyhirsutrin]

>  <numeric result>
5.67

$$$$

# input Find the recorded IC50 belonging to COc1cc(/C=C/C(=O)O)ccc1O [Ferulic acid (5), ferulic acid] and report it.
# output 21.9

# input # query: IC50 of entry O=C(O)c1c(O)cc(O)cc1O [2,4,6-trihydroxybenzoic acid (3), 2,4,6-trihydroxybenzoic acid]
# output 34.8
